Ki for assorted compounds
- testSystem: human σ1 receptor (Homo sapiens)
- Sequence (Q99720 whole entry): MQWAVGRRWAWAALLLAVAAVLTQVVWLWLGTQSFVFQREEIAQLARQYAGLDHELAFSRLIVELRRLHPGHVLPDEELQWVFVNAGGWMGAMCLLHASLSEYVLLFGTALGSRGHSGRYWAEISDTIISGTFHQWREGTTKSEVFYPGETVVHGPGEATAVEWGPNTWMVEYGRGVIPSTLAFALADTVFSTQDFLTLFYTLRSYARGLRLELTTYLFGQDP
- testMethodNotes: Human σ1 receptor radioligand assay ([3H](+)-pentazocine, transfected HEK-293 membranes)
- Assay type: binding
- conditionNotes: μ and σ1 dual binding, one class symbol for both Ki-σ1 (human σ1 receptor, A1) and Ki-μ (human μ-opioid receptor, A2)

>  <compound>
c1ccc(CC2(N3CCN(Cc4cccnc4)CC3)CCOC3(CCCC3)C2)cc1 (stereo not shown)

>  <testSystem>
human σ1 receptor (Homo sapiens)

>  <Ki>
< 500 nM

$$$$
>  <compound>
CC(C)CCN1CCN([C@@]2(C(=O)c3ccccn3)CCOC(C)(C)C2)CC1

>  <testSystem>
human σ1 receptor (Homo sapiens)

>  <Ki>
< 500 nM

$$$$
>  <compound>
c1ccc(CN2CCN(C3(Cc4ccccc4)CCOC4(CCCC4)C3)CC2)cc1 (stereo not shown)

>  <testSystem>
human σ1 receptor (Homo sapiens)

>  <Ki>
< 500 nM

$$$$
>  <compound>
CC(C)CCN1CCN([C@]2(C(=O)c3ccccn3)CCOC(C)(C)C2)CC1

>  <testSystem>
human σ1 receptor (Homo sapiens)

>  <Ki>
< 100 nM

$$$$
